# System: Staph. aureus 209-P
# ASSAY OVERVIEW: anti-bacterial activity, MIC, Staph. aureus 209-P
# Assay type: cell-based
# RUN PARAMETERS: Staphylococcus aureus, inoculum size 10^6 CFU/ml

[
  {
    "COMPOUND": "Nc1nc(/C(=N/OCF)C(=O)N[C@@H]2C(=O)N3C(C(=O)[O-])=C(C[n+]4ccc5n4CCCC5)CS[C@H]23)ns1 [Example 10]",
    "MIC / µg/mL": 0.4
  },
  {
    "COMPOUND": "C[N+]1(CC2=C(C(=O)[O-])N3C(=O)[C@@H](NC(=O)/C(=N\\OCF)c4nsc(N)n4)[C@H]3SC2)CC=C(C(N)=O)CC1 (stereo partly drawn) [Example 6]",
    "MIC / µg/mL": 1.56
  },
  {
    "COMPOUND": "C[N+](C)(CCC(N)=O)CC1=C(C(=O)[O-])N2C(=O)[C@@H](NC(=O)/C(=N\\OCF)c3nsc(N)n3)[C@H]2SC1 [Example 5]",
    "MIC / µg/mL": 1.56
  },
  {
    "COMPOUND": "Nc1nc(/C(=N/OCF)C(=O)N[C@@H]2C(=O)N3C(C(=O)[O-])=C(C[N+]45CCC(CO)(CC4)CC5)CS[C@H]23)ns1 [Example 11]",
    "MIC / µg/mL": 0.8
  },
  {
    "COMPOUND": "C[N+]1(CC2=C(C(=O)[O-])N3C(=O)[C@@H](NC(=O)/C(=N\\OCF)c4nsc(N)n4)[C@H]3SC2)CCCC1 [Example 4]",
    "MIC / µg/mL": 0.8
  },
  {
    "COMPOUND": "Nc1nc(/C(=N/OCF)C(=O)N[C@@H]2C(=O)N3C(C(=O)[O-])=C(C[N+](CCO)(CCO)CCO)CS[C@H]23)ns1 [Example 7]",
    "MIC / µg/mL": 6.25
  }
]
